All values here come from patent US20190177419A1.

Molecular target: T1, recombinant human Axl-Fc chimera (R&D Systems, Cat. no. 154-AL) (human, UniProt P30530 26-451)
T1 construct: extracellular domain; Bought reagent; also called rhAxl-Fc; rhAxl; not shown: Fc part (and any linker or tag) of the bought chimera; not described
Assay: SPR, Biacore 3000, 25 C, rhAxl-Fc immobilised on CM5 (190 RU), antibody injected, 1:1 Langmuir model
recordedEndpoint: pKd
Formally, pKd is defined as -log10 of the concentration c, with c in mol/L.

Example entries and their recorded answers appear below.
mouse monoclonal antibody 10G5 (from hybridoma WR-10G5-E5) (antibody, IgG1, V domains shown, Whole mouse antibody purified from hybridoma supernatant; also called MAb 10G5) VH: QVQLQQSGAELVRPGASVKLSCKASGYSFTDFYINWVRQRPGQGLEWIARIFPGGDNTYYNEKFKGKATLTAEESSSTAYIQLSSLTSEDSAVYFCARRGLYYAMDYWGQGISVTVSS VL: DVLMTQTPLSLPVSLGDQASISCRSSQSLVHSNGIPYLHWYLQKPGQSPKLLIYRVSNRFSGVPDRFSGSGSGTDFTLKISRVEAEDLGVYFCSQGTHVPPTFGGGTKLEIK; 9.28
chimeric (mouse variable/human constant) IgG1 antibody c10C9 (antibody, V domains shown, 10C9 VH and VL joined in frame to human IgG1 and C-kappa constant domains, made in CHO cells; also called chimeric 10C9; not shown: constant domains of the human IgG1 heavy chain; constant domain of the human light (C-kappa) chain) VH: QVQLQQPGPELVKPGASVKISCKTSDYNFTRYYIHWVKQRPGQGLEWIGWIYPGTGDSKYNEKFKGRATLTADTSSSTAYMQLSSQTSEDSAVYFCARNGNYWYFDVWGAGTAVTVSS VL: DIVMTQAAPSGPVTPGESVSISCRSSKSLLHSNGNTYLYWFLQRPGQSPQLLIYRMSNLASGVPDRFSGSGSGTAFTLRISRVEAEDVGIYYCMQHREYPFTFGGGTKLEIK; 9.99
chimeric (mouse variable/human constant) IgG1 antibody c10G5 (antibody, V domains shown, 10G5 VH and VL joined in frame to human IgG1 and C-kappa constant domains, made in CHO cells; also called chimeric 10G5; not shown: constant domains of the human IgG1 heavy chain; constant domain of the human light (C-kappa) chain) VH: QVQLQQSGAELVRPGASVKLSCKASGYSFTDFYINWVRQRPGQGLEWIARIFPGGDNTYYNEKFKGKATLTAEESSSTAYIQLSSLTSEDSAVYFCARRGLYYAMDYWGQGISVTVSS VL: DVLMTQTPLSLPVSLGDQASISCRSSQSLVHSNGIPYLHWYLQKPGQSPKLLIYRVSNRFSGVPDRFSGSGSGTDFTLKISRVEAEDLGVYFCSQGTHVPPTFGGGTKLEIK; 9.99

Recorded pKd (binder mouse monoclonal antibody 10C9 (from hybridoma UT-10C9-B9) (antibody, IgG2b, V domains shown, Whole mouse antibody purified from hybridoma supernatant; Possible N-glycosylation site (NFT) in CDR-H1; also called MAb 10C9) VH: QVQLQQPGPELVKPGASVKISCKTSDYNFTRYYIHWVKQRPGQGLEWIGWIYPGTGDSKYNEKFKGRATLTADTSSSTAYMQLSSQTSEDSAVYFCARNGNYWYFDVWGAGTAVTVSS VL: DIVMTQAAPSGPVTPGESVSISCRSSKSLLHSNGNTYLYWFLQRPGQSPQLLIYRMSNLASGVPDRFSGSGSGTAFTLRISRVEAEDVGIYYCMQHREYPFTFGGGTKLEIK ): 9.74
